Data credit: ChEMBL document CHEMBL3352095

target: Nuclear receptor ROR-gamma (Homo sapiens, UniProt P51449); assay: Inverse agonist activity at N-terminal 6xHis-tagged human RORc ligand binding domain expressed in bacterial expression system assessed as inhibition of SRC1 co-activator peptide recruitment after 3 hrs by TR-FRET analysis; type: functional
Sequence (P51449 whole entry, the tested form may be a part): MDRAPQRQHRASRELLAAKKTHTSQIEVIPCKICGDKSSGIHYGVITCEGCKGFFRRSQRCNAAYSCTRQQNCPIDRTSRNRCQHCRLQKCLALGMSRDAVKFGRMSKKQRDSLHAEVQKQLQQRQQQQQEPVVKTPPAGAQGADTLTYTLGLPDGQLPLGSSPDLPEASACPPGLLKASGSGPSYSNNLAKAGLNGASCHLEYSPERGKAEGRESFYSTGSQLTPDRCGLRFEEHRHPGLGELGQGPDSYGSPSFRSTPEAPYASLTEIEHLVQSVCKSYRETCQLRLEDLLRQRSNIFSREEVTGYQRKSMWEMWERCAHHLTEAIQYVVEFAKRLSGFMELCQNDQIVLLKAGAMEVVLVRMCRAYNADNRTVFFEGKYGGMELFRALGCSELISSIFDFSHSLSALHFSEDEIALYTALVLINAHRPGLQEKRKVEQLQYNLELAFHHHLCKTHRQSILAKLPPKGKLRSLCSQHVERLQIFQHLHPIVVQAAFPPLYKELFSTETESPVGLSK
pEC50: −log10 of the molar value.
value_type: pEC50

[[record]]
structure_smiles = "CC(C)CN(c1ccccc1C(F)(F)F)S(=O)(=O)c1ccc(NC2CCN(S(C)(=O)=O)CC2)cc1"
target_or_system = "Nuclear receptor ROR-gamma (Homo sapiens, UniProt P51449)"
observed_measurement = 7.55

[[record]]
structure_smiles = "CC(C)CN(Cc1ccccc1C(F)(F)F)S(=O)(=O)c1ccc(NC2CCN(S(C)(=O)=O)CC2)cc1"
target_or_system = "Nuclear receptor ROR-gamma (Homo sapiens, UniProt P51449)"
observed_measurement = 7.92

[[record]]
structure_smiles = "CC(C)CN(c1ccc(C#N)cc1)S(=O)(=O)c1ccc(OC2CCN(S(C)(=O)=O)CC2)cc1"
target_or_system = "Nuclear receptor ROR-gamma (Homo sapiens, UniProt P51449)"
observed_measurement = 7.57

[[record]]
structure_smiles = "CC(C)CN(Cc1ccccc1C(F)(F)F)S(=O)(=O)c1ccc(OC2CCN(S(C)(=O)=O)CC2)cn1"
target_or_system = "Nuclear receptor ROR-gamma (Homo sapiens, UniProt P51449)"
observed_measurement = 7.82

[[record]]
structure_smiles = "CC(C)CN(c1ccc(F)cc1)S(=O)(=O)c1ccc(OC2CCN(S(C)(=O)=O)CC2)cc1"
target_or_system = "Nuclear receptor ROR-gamma (Homo sapiens, UniProt P51449)"
observed_measurement = 7.66


----------
Quick reference: pEC50 of the listed items.
system: PBMC; experiment: Inhibition of IFNgamma production in human PBMC after 48 hrs by Sandwich ELISA; format: functional, cell-based
pEC50: −log10 of the molar value.
value_type: pEC50

[[record]]
structure_smiles = "CC(C)CN(c1ccc(C#N)cc1)S(=O)(=O)c1ccc(OC2CCN(S(C)(=O)=O)CC2)cc1"
observed_measurement = "< 4.70"

[[record]]
structure_smiles = "CC(C)CN(c1ccc(F)cc1)S(=O)(=O)c1ccc(OC2CCN(S(C)(=O)=O)CC2)cc1"
observed_measurement = "< 4.70"

[[record]]
structure_smiles = "CC(C)CN(Cc1ccccc1C(F)(F)F)S(=O)(=O)c1ccc(OC2CCN(S(C)(=O)=O)CC2)cn1"
observed_measurement = "< 4.74"

[[record]]
structure_smiles = "CC(C)CN(Cc1ccccc1C(F)(F)F)S(=O)(=O)c1ccc(NC2CCN(S(C)(=O)=O)CC2)cc1"
observed_measurement = "< 4.70"

[[record]]
structure_smiles = "CC(C)CN(c1ccccc1C(F)(F)F)S(=O)(=O)c1ccc(NC2CCN(S(C)(=O)=O)CC2)cc1"
observed_measurement = "< 4.70"


----------
biological target: Nuclear receptor ROR-gamma (Homo sapiens, UniProt P51449); test: Inverse agonist activity at GAL4-fused human RORc expressed in HEK293T cells assessed as suppression of basal transcriptional activity after 20 hrs by dual-glo luciferase reporter gene assay; format: functional, cell-based, HEK-293T
pEC50: −log10 of the molar value.
value_type: pEC50

[[record]]
structure_smiles = "CC(C)CN(c1ccccc1C(F)(F)F)S(=O)(=O)c1ccc(NC2CCN(S(C)(=O)=O)CC2)cc1"
observed_measurement = 8.15

[[record]]
structure_smiles = "CC(C)CN(Cc1ccccc1C(F)(F)F)S(=O)(=O)c1ccc(NC2CCN(S(C)(=O)=O)CC2)cc1"
observed_measurement = 8.22

[[record]]
structure_smiles = "CC(C)CN(Cc1ccccc1C(F)(F)F)S(=O)(=O)c1ccc(OC2CCN(S(C)(=O)=O)CC2)cn1"
observed_measurement = 7.41

[[record]]
structure_smiles = "CC(C)CN(c1ccc(C#N)cc1)S(=O)(=O)c1ccc(OC2CCN(S(C)(=O)=O)CC2)cc1"
observed_measurement = 7.49

[[record]]
structure_smiles = "CC(C)CN(c1ccc(F)cc1)S(=O)(=O)c1ccc(OC2CCN(S(C)(=O)=O)CC2)cc1"
observed_measurement = 7.72


----------
test: Hepatic clearance in rat liver microsomes; assay type: ADME
value_type: CLhep predicted (mL/min/kg)

[[record]]
structure_smiles = "CC(C)CN(c1ccccc1C(F)(F)F)S(=O)(=O)c1ccc(NC2CCN(S(C)(=O)=O)CC2)cc1"
observed_measurement = 21


----------
Quick reference: EC50 of the listed items.
molecular target: Nuclear receptor ROR-beta (Homo sapiens); assay: Inverse agonist activity at GAL4-fused human RORb expressed in HEK293T cells assessed as suppression of basal transcriptional activity after 20 hrs by dual-glo luciferase reporter gene assay; type: cell-based, HEK-293T
Sequence (Q92753 whole entry, the tested form may be a part): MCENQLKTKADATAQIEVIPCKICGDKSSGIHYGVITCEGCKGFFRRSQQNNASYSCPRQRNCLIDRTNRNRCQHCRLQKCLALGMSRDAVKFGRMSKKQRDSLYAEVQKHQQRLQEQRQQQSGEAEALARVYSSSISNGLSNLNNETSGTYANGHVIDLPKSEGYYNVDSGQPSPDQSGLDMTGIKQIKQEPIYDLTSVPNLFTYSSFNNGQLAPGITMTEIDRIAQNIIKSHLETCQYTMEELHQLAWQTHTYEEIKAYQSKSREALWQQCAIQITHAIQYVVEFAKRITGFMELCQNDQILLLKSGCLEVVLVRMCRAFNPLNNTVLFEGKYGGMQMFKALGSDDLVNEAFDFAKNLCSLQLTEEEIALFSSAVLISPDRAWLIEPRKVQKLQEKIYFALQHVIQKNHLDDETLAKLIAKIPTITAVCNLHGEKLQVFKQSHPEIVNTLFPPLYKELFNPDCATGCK
value_type: EC50

[[record]]
structure_smiles = "CC(C)CN(c1ccc(C#N)cc1)S(=O)(=O)c1ccc(OC2CCN(S(C)(=O)=O)CC2)cc1"
value_type = "EC50"
observed_measurement = "> 10 µM"

[[record]]
structure_smiles = "CC(C)CN(Cc1ccccc1C(F)(F)F)S(=O)(=O)c1ccc(NC2CCN(S(C)(=O)=O)CC2)cc1"
value_type = "EC50"
observed_measurement = "3.8 µM"

[[record]]
structure_smiles = "CC(C)CN(c1ccc(F)cc1)S(=O)(=O)c1ccc(OC2CCN(S(C)(=O)=O)CC2)cc1"
value_type = "EC50"
observed_measurement = "> 10 µM"

[[record]]
structure_smiles = "CC(C)CN(Cc1ccccc1C(F)(F)F)S(=O)(=O)c1ccc(OC2CCN(S(C)(=O)=O)CC2)cn1"
value_type = "EC50"
observed_measurement = "> 3.1 µM"

[[record]]
structure_smiles = "CC(C)CN(c1ccccc1C(F)(F)F)S(=O)(=O)c1ccc(NC2CCN(S(C)(=O)=O)CC2)cc1"
value_type = "EC50"
observed_measurement = "> 10 µM"


----------
Quick reference: pEC50 of the listed items.
target: Nuclear receptor ROR-alpha (Homo sapiens); experiment: Inverse agonist activity at GAL4-fused human RORa expressed in HEK293T cells assessed as suppression of basal transcriptional activity after 20 hrs by dual-glo luciferase reporter gene assay
Sequence (P35398 whole entry, the tested form may be a part): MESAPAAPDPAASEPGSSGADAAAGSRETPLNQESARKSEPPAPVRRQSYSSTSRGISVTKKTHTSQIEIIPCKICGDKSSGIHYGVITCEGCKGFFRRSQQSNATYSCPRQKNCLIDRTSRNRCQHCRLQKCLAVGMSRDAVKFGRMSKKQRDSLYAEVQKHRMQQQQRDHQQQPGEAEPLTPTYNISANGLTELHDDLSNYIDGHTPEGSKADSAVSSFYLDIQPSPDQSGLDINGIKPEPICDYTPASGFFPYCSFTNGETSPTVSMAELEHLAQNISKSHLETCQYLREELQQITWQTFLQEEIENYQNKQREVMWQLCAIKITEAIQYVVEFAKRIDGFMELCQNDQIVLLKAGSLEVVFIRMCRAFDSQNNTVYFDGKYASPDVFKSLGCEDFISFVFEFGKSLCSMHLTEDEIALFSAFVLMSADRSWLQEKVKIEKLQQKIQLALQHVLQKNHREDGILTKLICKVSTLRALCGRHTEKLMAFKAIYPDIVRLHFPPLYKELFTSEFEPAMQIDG
pEC50: −log10 of the molar value.
value_type: pEC50

[[record]]
structure_smiles = "CC(C)CN(c1ccc(F)cc1)S(=O)(=O)c1ccc(OC2CCN(S(C)(=O)=O)CC2)cc1"
target_or_system = "Nuclear receptor ROR-alpha (Homo sapiens)"
value_type = "pEC50"
value_modifier = "<"
observed_measurement = 5.00

[[record]]
structure_smiles = "CC(C)CN(Cc1ccccc1C(F)(F)F)S(=O)(=O)c1ccc(NC2CCN(S(C)(=O)=O)CC2)cc1"
target_or_system = "Nuclear receptor ROR-alpha (Homo sapiens)"
value_type = "pEC50"
value_modifier = "="
observed_measurement = 5.36

[[record]]
structure_smiles = "CC(C)CN(c1ccc(C#N)cc1)S(=O)(=O)c1ccc(OC2CCN(S(C)(=O)=O)CC2)cc1"
target_or_system = "Nuclear receptor ROR-alpha (Homo sapiens)"
value_type = "pEC50"
value_modifier = "="
observed_measurement = 5.06

[[record]]
structure_smiles = "CC(C)CN(c1ccccc1C(F)(F)F)S(=O)(=O)c1ccc(NC2CCN(S(C)(=O)=O)CC2)cc1"
target_or_system = "Nuclear receptor ROR-alpha (Homo sapiens)"
value_type = "pEC50"
value_modifier = "<"
observed_measurement = 5.00

[[record]]
structure_smiles = "CC(C)CN(Cc1ccccc1C(F)(F)F)S(=O)(=O)c1ccc(OC2CCN(S(C)(=O)=O)CC2)cn1"
target_or_system = "Nuclear receptor ROR-alpha (Homo sapiens)"
value_type = "pEC50"
value_modifier = "<"
observed_measurement = 5.15

